- PROTOCOL DESCRIPTION: Dynamic solubility at 37 °C (HPLC; residual solid by XRPD)
- Type: physicochemical
- COND: water, 37 °C, thermodynamic from solid, 1 h
- Description: Samples of the crystal form A and the crystal form B of ethoximod were taken and prepared into saturated solutions at 37 °C in Fasted State Simulated Intestinal Fluid (FaSSIF, pH = 8.0), Fed State Simulated Intestinal Fluid (FeSSIF, pH = 5.0), Simulated Gastric Fluid (SGF, pH = 1.0), a hydrochloric acid aqueous solution (pH = 1.0), an acetic acid-sodium acetate buffer system (pH = 4.0), a phosphate buffer system (pH = 6.8) and water. […]
REPORTED ENDPOINT: solubility at 1 h (µg/mL)

{"MOLECULE": "CCc1nc(-c2ccc(-c3ccc(CCC(N)(CO)CO)cc3)cc2)co1.Cl [crystal form A]", "RECORDED NUMBER": 2080}
